- target_desc: UniProt Q9NPD5
- Sequence (Q9NPD5 whole entry): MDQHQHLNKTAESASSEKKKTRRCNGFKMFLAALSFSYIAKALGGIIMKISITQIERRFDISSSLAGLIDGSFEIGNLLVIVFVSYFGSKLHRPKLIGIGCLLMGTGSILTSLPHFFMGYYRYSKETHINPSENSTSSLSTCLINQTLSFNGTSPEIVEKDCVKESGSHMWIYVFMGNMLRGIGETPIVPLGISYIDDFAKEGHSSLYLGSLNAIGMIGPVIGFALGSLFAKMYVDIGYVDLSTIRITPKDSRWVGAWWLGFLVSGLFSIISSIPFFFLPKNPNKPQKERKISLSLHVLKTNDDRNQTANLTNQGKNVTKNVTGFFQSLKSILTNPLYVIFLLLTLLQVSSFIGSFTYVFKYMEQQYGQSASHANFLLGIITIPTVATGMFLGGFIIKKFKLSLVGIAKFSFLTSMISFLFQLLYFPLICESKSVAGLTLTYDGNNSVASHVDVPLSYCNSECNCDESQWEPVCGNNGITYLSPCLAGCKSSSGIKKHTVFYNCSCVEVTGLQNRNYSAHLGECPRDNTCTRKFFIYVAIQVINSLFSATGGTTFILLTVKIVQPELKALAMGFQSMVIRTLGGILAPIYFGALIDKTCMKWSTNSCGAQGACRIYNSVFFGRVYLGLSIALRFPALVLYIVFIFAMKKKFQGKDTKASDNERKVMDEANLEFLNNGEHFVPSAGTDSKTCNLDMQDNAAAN
- test_conditions: chinese hamster, cho, 10 µM
property_name: residual activity (%)
Give bare numbers, in %.

INSERT INTO results (compound, property_name, numeric_result) VALUES
  ('CC(C)=CCc1c2c(c(O)c3c(=O)c(O)c(-c4ccccc4)oc13)C=CC(C)(C)O2 [SERICETIN]', 'residual activity', 98.26),
  ('C[C@H](CCC(=O)O)[C@H]1CC[C@H]2[C@@H]3CC[C@@H]4CC(=O)CC[C@]4(C)[C@H]3C=C[C@]12C', 'residual activity', 203.2),
  ('CCNc1nc(Cl)nc(NC(C)C)n1 [ATRAZINE]', 'residual activity', 96.21),
  ('COc1cc2ccc(=O)oc2cc1O [SCOPOLETIN]', 'residual activity', 99.95),
  ('COc1ccc(C(=O)O[C@H]2CC[C@@]3(C)[C@@H]4CC[C@H]5[C@]6(O)C[C@H](O)[C@@]7(O)[C@@H](CN8C[C@@H](C)CC[C@H]8[C@@]7(C)O)[C@]6(O)C[C@@]53O[C@]24O)cc1OC [VERATRIDINE]', 'residual activity', 133.7);

Respectfully, I request residual activity for each entry included below.
1. CSc1nc(NC(C)C)nc(NC(C)C)n1 [PROMETRYN]
2. C[C@@H]1CC[C@@]2(OC1)O[C@H]1C[C@H]3[C@@H]4CC[C@H]5C[C@@H](O)CC[C@]5(C)[C@H]4CC[C@]3(C)[C@H]1[C@@H]2C [TIGOGENIN]

**A:**
1: 86.3; 2: 106.8
